Values were extracted from patent US20030185956A1.

run_description: physchem
condition_details: 25 °C, water
endpoint_name: solubility

Query :: Name the reported solubility value associated with the compound C=C(C)C1CC=C(C)C(=O)C1 (stereo not shown)
Result :: ~600 µg/mL
